Below: a set of entries, each annotated with reported IC50.
# System: SARS-CoV-2 Beta var (B.1.351)
# test-method-notes: microbe, parasite or virus in culture
# Assay type: cell-based
# condition-info: Severe acute respiratory syndrome coronavirus 2, vero cells
Answer in nM, number only, no unit symbol.

// below: answered molecules
>>> recorded_measurement("CCC(CC)COC(=O)[C@H](C)N[P@](=O)(OC[C@H]1O[C@@](C#N)(c2ccc3c(N)ncnn23)[C@H](O)[C@@H]1O)Oc1ccccc1")
1470
>>> recorded_measurement("CCN(CC)CCCC(C)Nc1ccnc2cc(Cl)ccc12 (stereo not shown)")
2640
>>> recorded_measurement("Cc1cccc(C)c1OCC(=O)N[C@@H](Cc1ccccc1)[C@@H](O)C[C@H](Cc1ccccc1)NC(=O)[C@H](C(C)C)N1CCCNC1=O")
11800

Next molecule, please.
Query string: Please state recorded IC50 (tested on SARS-CoV-2 Beta var (B.1.351)) of CC(=O)c1c(O)c(C)c(O)c2c1OC1=CC(=O)C(C(C)=O)C(=O)[C@@]12C (single isomer, unassigned; (+)) [(+)-usnic acid]
Result string: 2920
